Data origin, for the record: ChEMBL document CHEMBL1157362

protocol_text: Central volume of distribution in rhesus monkey
Type: ADME, organism-based, Macaca mulatta
condition_notes: in vivo, read-out: Vc
reported_property: Vd
Please format your answer as a value with the unit trailing.

(Q) Which Vd value is on record for `Nc1nc(=O)n([C@H]2CO[C@@H](CO)O2)cc1F` ?
(A) 0.53 L/kg

---

protocol_text: Cmax in rhesus monkey at 33.3 mg/kg, po
Format: ADME, organism-based, Macaca mulatta
Design: dose 33.3 mg/kg, route oral
condition_notes: in vivo
reported_property: Cmax (µM)
Entry rule: numbers only, all in µM.

(Q) Which Cmax value is on record for `Cc1cn([C@H]2CO[C@@H](CO)O2)c(=O)[nH]c1=O` ?
(A) 105

---

protocol_text: Oral bioavailability in cynomolgus monkey
Format: ADME, organism-based, Macaca fascicularis
condition_notes: in vivo
reported_property: bioavailability
Please format your answer as a value with the unit trailing.

(Q) Which bioavailability value is on record for Cc1cn([C@H]2C=C[C@@H](CO)O2)c(=O)[nH]c1=O [STAVUDINE] ?
(A) 83%

---

protocol_text: Oral bioavailability in mouse
Type: ADME, organism-based
condition_notes: in vivo
reported_property: bioavailability (%)
Entry rule: numbers only, all in %.

(Q) Which bioavailability value is on record for Cc1cn([C@H]2C=C[C@@H](CO)O2)c(=O)[nH]c1=O [STAVUDINE] ?
(A) 100

---

protocol_text: AUC in rhesus monkey at 33.3 mg/kg, po
Format: ADME, organism-based, Macaca mulatta
Set-up: dose 33.3 mg/kg, route oral
condition_notes: plasma
reported_property: AUC (µM·h)
Entry rule: numbers only, all in µM·h.

(Q) Which AUC value is on record for `Cc1cn([C@H]2CO[C@@H](CO)O2)c(=O)[nH]c1=O` ?
(A) 387

---

protocol_text: Drug level in rhesus monkey cerebrospinal fluid at 33.3 mg/kg, iv after 2 hrs
Assay type: ADME, organism-based, Macaca mulatta
Set-up: dose 33.3 mg/kg, route intravenous
condition_notes: read-out: Drug uptake
reported_property: concentration at 2 h (µM)
Entry rule: numbers only, all in µM.

(Q) Which concentration at 2 h value is on record for `Cc1cn([C@H]2CO[C@@H](CO)O2)c(=O)[nH]c1=O` ?
(A) 12.3

---

I'd be grateful if you could share measured half-life for these entries.
protocol_text: Terminal phase half life in rhesus monkey
Type: ADME, organism-based, Macaca mulatta
condition_notes: in vivo
Entry rule: numbers only, all in min.

(Q) Which half-life value is on record for Cc1cn([C@H]2C[C@H](N=[N+]=[N-])[C@@H](CO)O2)c(=O)[nH]c1=O [ZIDOVUDINE] ?
(A) 48

(Q) Continue with `Nc1nc(=O)n([C@H]2CO[C@@H](CO)O2)cc1F`
(A) 149

(Q) Continue with Cc1cn([C@H]2C=C[C@@H](CO)O2)c(=O)[nH]c1=O [STAVUDINE]
(A) 48

---

protocol_text: Drug elimination in monkey urine after 30 days
Type: ADME, organism-based, Macaca mulatta
condition_notes: rhesus monkey, Activity
reported_property: dose excreted at 720 h

(Q) Which dose excreted at 720 h value is on record for `Cc1cn([C@H]2C=C[C@@H](CO)O2)c(=O)[nH]c1=O` ?
(A) < 50%

---

Test system: Rhesus monkey
protocol_text: AUC in rhesus monkey
Type: ADME, organism-based, Macaca mulatta, Plasma
condition_notes: in vivo
reported_property: AUC (µM·h)
Entry rule: numbers only, all in µM·h.

(Q) Which AUC value is on record for `Nc1nc(=O)n([C@H]2CO[C@@H](CO)O2)cc1F` ?
(A) 197
